target: HLA-A*02 (human); assay: UV-exchange b2m ELISA
Readout: peptide exchange yield

**Q:** Give the value of peptide exchange yield reported for the following: AILAHLNTV
**A:** > 75%

**Q:** Give the value of peptide exchange yield reported for the following: ALMAMLVYV
**A:** 20 to 49%

**Q:** Give the value of peptide exchange yield reported for the following: ALNIATHVL
**A:** 50 to 75%

**Q:** Give the value of peptide exchange yield reported for the following: ALCPRIHEV
**A:** > 75%

**Q:** Give the value of peptide exchange yield reported for the following: KMVGLVVAI
**A:** 50 to 75%

**Q:** Give the value of peptide exchange yield reported for the following: ILVEGISTV
**A:** 50 to 75%

**Q:** Give the value of peptide exchange yield reported for the following: AIQDEIRSV
**A:** 50 to 75%

**Q:** Give the value of peptide exchange yield reported for the following: TQSPATLSV
**A:** 20 to 49%
